- run description: NCI Yeast Anticancer Drug Screen. Data for the bub3 strain (AID 167)
- condition set: S. cerevisiae bub3 mutant strain, at 50.0 µM, stronger effect = higher value
The panel holds about 79,000 compounds, 15% with a hit somewhere; the sample as a whole holds those more often.
measured attribute: growth inhibition (%)
Numeric only. Scale: %

{"molecule": "CC(C)COC(=O)C1C2C=CC(CC2)C1C(=O)OCC(C)C (configuration not stated)", "growth inhibition / %": 40.5}

growth inhibition for `Cc1nc2c(nc1C)C(=O)C1=C(C2=O)C2C=CC1CC2` ? 93.5

Recorded growth inhibition for `CCc1c(C)[nH]c(-c2csc(N)n2)c1C` , please? 67.8

// returns reported growth inhibition for input `O=C(O)/C(=C\c1ccc(O)cc1)c1cccc2ccccc12` 61.5

Report growth inhibition for `O=[N+]([O-])c1ccc(CO)o1` please. 26.7

Need growth inhibition of `CN(C)C(=O)c1cc(Cl)cc(-c2ccccc2)c1O` , thanks. 60.2

Fill in: growth inhibition of `CC(=O)c1ccc([N+](=O)[O-])o1` is ___ 92.5
